experiment: qHTS RealTime-Glo MT Cell Viability Assay in HEK293 cells - 40 hour (AID 1224874); conditions: RealTime-Glo luminescence; active compounds read low; further: on the % scale 0 is the no-effect control and ±100 the full control effect; nearly all actives have a fitted effect of over 50% in size
Inconclusive results are not listed.
Each entry below carries its recorded max response.
endpoint: max response (%)

molecule | result.number
OCC(CO)N[C@H]1C[C@](O)(CO)[C@@H](O)[C@H](O)[C@H]1O | 11.4
BrC1CCC(Br)C(Br)CCC(Br)C(Br)CCC1Br (stereo not given) | -14.3
CC(C)(C)NCC(O)c1cc(O)cc(O)c1 (stereo not given) | 4.94
CCCCOCCOC(=O)c1ccccc1C(=O)OCCOCCCC | -18.4
c1cnc2cc3c(cc2n1)C1CNCC3C1 | 11
C#CC(C)(CC)OC(=O)c1ccccc1C(=O)O (stereo not given) | 0.788
c1ccc2c(c1)CCCC2C1=NCCN1 (stereo not given) | 3.27
O=C(O)Cn1cnnn1 | 0.0865
CC(C)CCOCc1ccccc1 | 2.97
NCCCCCC(=O)O | -0.0726
CC(C)C(=O)c1c(C(C)C)nn2ccccc12 | -0.81
CC(C)(O)CCC(C)(C)O | -3.66
CC(C)(C)c1ccccc1 | 0.372
CC(=O)OCC1=C(C(=O)O)N2C(=O)[C@@H](NC(=O)Cc3cccs3)[C@H]2SC1 | 6.98
CCn1cc(C(=O)O)c(=O)c2cc(F)c(N3CCNC(C)C3)c(F)c21 (stereo not given) | 14.9
CC(=O)CC(C)=O | -5.33
COc1nc(C)nc(Cl)c1NC1=NCCN1 | 2.57
c1ccc2c(c1)-c1cccc3c1c-2cc1ccccc13 | 1.04
CC(N)=O | 14.5
CCCCCCCCCCCCCCCCCl | 0.0293
CC(=O)CC(=O)Nc1ccc2[nH]c(=O)[nH]c2c1 | -1.76
O=C(O)c1cc(Cl)cc(Cl)c1 | 8.11
CC(C(O)c1ccc(O)cc1)N1CCC(Cc2ccccc2)CC1 (stereo not given) | -13.3
O=C(OCc1ccccc1)c1ccc(O)cc1 | -24.2
C[N+]1([O-])CCOCC1 | 0.178
CCCCC/C=C/CC1CC(=O)OC1=O (stereo not given) | 1.06
O=Cc1ccc(Cl)cc1 | -1.8
CNC1(C)C2CCC(C2)C1(C)C (stereo not given) | -3.74
CC[C@@H](N)CO | -8.2
c1cc(C(c2ccc(OCC3CO3)cc2)C(c2ccc(OCC3CO3)cc2)c2ccc(OCC3CO3)cc2)ccc1OCC1CO1 (stereo not given) | -1.63
Nc1cc(S(=O)(=O)O)cc2cc(S(=O)(=O)O)cc(O)c12 | -12.9
CO[Si](OC)(OC)c1ccccc1 | 0.242
NC(N)=NC(=O)Cc1c(Cl)cccc1Cl | -13.5
COc1ccc(Cc2cnc(N)nc2N)cc1OC | 0.446
CC(C)(C)NCC(O)COc1ccccc1OCC1CCCO1 (stereo not given) | 0.952
COC(c1ccccc1)(c1ccccc1)[C@H](Oc1nc(C)cc(C)n1)C(=O)O | -3.67
CCC(CO)(CO)COCC(CC)(CO)CO | -1.05
CN1C(=O)c2ccc([N+](=O)[O-])cc2C1=O | 0.763
Cc1ccc(S(=O)(=O)Oc2ccc(N=Nc3ccc(-c4ccc(N=Nc5c(O)ccc6cc(S(=O)(=O)O)cc(S(=O)(=O)O)c56)c(C)c4)cc3C)cc2)cc1 | -0.0985
CC(C)(C)c1cc(C(C)(C)C)c(O)c(C(C)(C)C)c1 | -7.81
